Method Notes: self-splicing fitness, log relative to wild type (ln ratio); higher = more splicing; Tetrahymena group I intron in knt gene, E. coli kanamycin selection, DiMSum; sequences stand for … in CUCUCU…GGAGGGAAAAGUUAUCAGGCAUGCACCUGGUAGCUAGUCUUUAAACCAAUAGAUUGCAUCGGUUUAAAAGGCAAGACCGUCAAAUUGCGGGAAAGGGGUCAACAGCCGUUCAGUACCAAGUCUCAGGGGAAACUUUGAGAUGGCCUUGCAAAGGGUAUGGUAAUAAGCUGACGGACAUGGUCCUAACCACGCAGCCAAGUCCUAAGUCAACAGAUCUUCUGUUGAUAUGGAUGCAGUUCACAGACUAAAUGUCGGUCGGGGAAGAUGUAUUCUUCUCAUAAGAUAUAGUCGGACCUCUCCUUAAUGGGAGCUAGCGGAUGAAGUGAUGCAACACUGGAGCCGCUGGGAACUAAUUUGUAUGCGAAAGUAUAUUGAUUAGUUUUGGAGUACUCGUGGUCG;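 further: selection with 25 µg/mL kanamycin versus none on LB agar overnight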
Cond: 37 °C
Cut-off -1 on self-splicing fitness (ln), inclusive. At or above means label 1; below means label 0.

>>> assigned_label("CAGUAGCAAUAUUACGAGGC")
"label 0"
>>> assigned_label("AAAAAGCAAUAUUACGUGAA")
"label 1"
>>> assigned_label("CGCGAGCAAUAUUACGGCCG")
"label 0"
>>> assigned_label("CUCAAGCAAUAUUACGAACC")
"label 0"
>>> assigned_label("AGACAGCAAUAUUACGCCCU")
"label 1"
>>> assigned_label("UUGUAGCAAUAUUACGUGGG")
"label 0"
>>> assigned_label("AAUAAGCAAUAUUACGGAGA")
"label 0"
>>> assigned_label("UGCCAGCAAUAUUACGUAGG")
"label 1"
>>> assigned_label("CCACAGCAAUAUUACGCGAC")
"label 0"
>>> assigned_label("UCAUAGCAAUAUUACGAGUA")
"label 1"
>>> assigned_label("UGACAGCAAUAUUACGCUUC")
"label 0"
>>> assigned_label("UGGGAGCAAUAUUACGUGGU")
"label 0"
>>> assigned_label("AUCGAGCAAUAUUACGGGUU")
"label 0"
>>> assigned_label("UAUGAGCAAUAUUACGUAUG")
"label 0"
>>> assigned_label("AUUAAGCAAUAUUACGGUAU")
"label 0"
>>> assigned_label("GACUAGCAAUAUUACGGUCC")
"label 0"
>>> assigned_label("CUGAAGCAAUAUUACGGAGU")
"label 0"
>>> assigned_label("GUUAAGCAAUAUUACGGGUA")
"label 0"
>>> assigned_label("GCGAAGCAAUAUUACGACGA")
"label 1"
>>> assigned_label("GAAUAGCAAUAUUACGAUGC")
"label 1"
>>> assigned_label("UAAUAGCAAUAUUACGGCCA")
"label 1"
>>> assigned_label("GCUAAGCAAUAUUACGGUCA")
"label 1"
>>> assigned_label("UCACAGCAAUAUUACGGGGA")
"label 1"
>>> assigned_label("AGUUAGCAAUAUUACGACUU")
"label 1"
>>> assigned_label("UAGUAGCAAUAUUACGUUAC")
"label 0"
>>> assigned_label("GUGGAGCAAUAUUACGCCGU")
"label 0"
>>> assigned_label("GUCAAGCAAUAUUACGGUAA")
"label 1"
>>> assigned_label("UCAAAGCAAUAUUACGGACU")
"label 0"
>>> assigned_label("UGUCAGCAAUAUUACGGGCC")
"label 1"
>>> assigned_label("UACGAGCAAUAUUACGGGAG")
"label 0"
>>> assigned_label("AAGGAGCAAUAUUACGUUUU")
"label 0"
>>> assigned_label("GACGAGCAAUAUUACGGUAC")
"label 0"
>>> assigned_label("CUCCAGCAAUAUUACGGGGG")
"label 0"
>>> assigned_label("GUUCAGCAAUAUUACGACUA")
"label 1"
